- Test system: PANC-1
- method-notes: SRB colorimetric assay of cell growth and viability, PANC-1
- Assay type: cell-based, human
- condition-parameters: PANC-1; 48 hours exposure
Where a SMILES comes first, the peptide text is derived from it. Bridges are numbered along the chain shown (N, C = ends). [ ]: non-standard residue; d: D form. The star is where a group is joined. d(aIle) = CC[C@H](C)[C@@H](N)C(=O)O; d(aThr) = C[C@@H](O)[C@@H](N)C(=O)O; Hexanoyl(5-Me) = CC(C)CCCC(=O)*; Orn = NCCC[C@H](N)C(=O)O; Dhb = C/C=C(\N)C(=O)O

compound | system-name | TGI PANC-1 [Molar]
C/C=C1\NC(=O)[C@H](Cc2ccccc2)NC(=O)[C@@H](C(C)C)NC(=O)[C@@H]([C@@H](C)CC)NC(=O)[C@H](NC(=O)[C@H](NC(=O)[C@H](CCCN)NC(=O)[C@H]2CCCN2C(=O)[C@H](NC(=O)[C@@H](NC(=O)[C@H](Cc2ccccc2)NC(=O)[C@H](NC(=O)CCCC(C)C)C(C)C)C(C)C)C(C)C)[C@@H](C)CC)[C@@H](C)OC(=O)[C@H](C(C)C)NC1=O [Compound 114, [Phe^12]-KF] ({Hexanoyl(5-Me)}-[dV]FV[dV][dP][Orn][d(aIle)][d(aThr)][d(aIle)][dV]F[Dhb]V; ester 8-C) | PANC-1 | 1.16E−06
C/C=C1\NC(=O)[C@H](Cc2ccccc2)NC(=O)[C@@H](C(C)C)NC(=O)[C@@H]([C@@H](C)CC)NC(=O)[C@H](NC(=O)[C@H](NC(=O)[C@H](CCCN)NC(=O)[C@@H]2CC[C@H](c3ccccc3)N2C(=O)[C@H](NC(=O)[C@@H](NC(=O)[C@@H](NC(=O)[C@H](NC(=O)CC[C@@H](C)CC)C(C)C)[C@@H](C)O)C(C)C)C(C)C)[C@@H](C)CC)[C@@H](C)OC(=O)[C@H](C(C)C)NC1=O [Compound 62, [(5R)-Ph-Pro^9, (4S)-MeHex^14]-KF] | PANC-1 | 6.43E−06
